method.description: oral biological activity: % uterine weight increase compared to vehicle
Format: in vivo, rat
details: Rattus norvegicus; oral, 10.0 μg
Please enter Condition met where change in vivo at 0.01 mg is greater than or equal to 200%, and Condition not met where it is lower.

• CC(C)[C@H](NC(=O)c1ccc(S(N)(=O)=O)cc1)C(=O)O[C@H]1CCC2C3CCc4cc(O)ccc4C3CC[C@@]21C (stereo partly drawn) [Compound 19A] = Condition met
• C[C@]12CCC3c4ccc(O)cc4CCC3C1CC[C@@H]2OC(=O)C(F)(F)S(N)(=O)=O (stereo partly drawn) [Compound 9A] = Condition met
• C[C@@H](C(=O)O[C@H]1CCC2C3CCc4cc(O)ccc4C3CC[C@@]21C)N(C)C(=O)c1ccc(S(N)(=O)=O)cc1 (stereo partly drawn) [Compound 18A] = Condition met
• C#C[C@]1(O)CC[C@H]2[C@@H]3CCc4cc(O)ccc4[C@H]3CC[C@@]21C [EE, ethinyl estradiol, reference compound] = Condition not met
• C[C@]12CCC3c4ccc(O)cc4CCC3C1CC[C@@H]2OC(=O)[C@@H]1CCCN1C(=O)c1cccc(S(N)(=O)=O)c1 (stereo partly drawn) [Compound 7A] = Condition not met
• C[C@]12CCC3c4ccc(O)cc4CCC3C1CC[C@@H]2OC(=O)CNC(=O)c1ccc(S(N)(=O)=O)cc1 (stereo partly drawn) [Compound 6A] = Condition not met

###

Entries annotated with measured change in vivo at 0.01 mg
method.description: oral biological activity: % uterine weight increase compared to vehicle
Type: in vivo, rat
details: Rattus norvegicus; oral, 10.0 μg
test.readout: change in vivo at 0.01 mg (%)

• C[C@]12CCC3c4ccc(O)cc4CCC3C1CC[C@@H]2OC(=O)CS(N)(=O)=O (stereo partly shown) [Compound 10A] = 177
• C[C@]12CCC3c4ccc(O)cc4CCC3C1CC[C@@H]2OC(=O)[C@H](Cc1ccccc1)NC(=O)c1ccc(S(N)(=O)=O)cc1 (stereo partly shown) [Compound 21A] = 117
• CC(C)(NC(=O)c1ccc(S(N)(=O)=O)cc1)C(=O)O[C@H]1CCC2C3CCc4cc(O)ccc4C3CC[C@@]21C (stereo partly shown) [Compound 20A] = 97.1
• C[C@]12CC[C@@H]3c4ccc(O)cc4CC[C@H]3[C@@H]1CC[C@@H]2O [Compound E2, estradiol, reference compound] = 118
• C[C@]12CCC3c4ccc(O)cc4CCC3C1CC[C@@H]2OC(=O)[C@@H]1CCCN1Cc1ccc(S(N)(=O)=O)cc1 (stereo partly shown) [Compound 23A] = 272
• C[C@H](NC(=O)c1cccc(S(N)(=O)=O)c1)C(=O)O[C@H]1CCC2C3CCc4cc(O)ccc4C3CC[C@@]21C (stereo partly shown) [Compound 11A] = 170
• C[C@]12CCC3c4ccc(O)cc4CCC3C1CC[C@@H]2OC(=O)[C@@H]1CCCN1c1ccc(S(N)(=O)=O)cc1 (stereo partly shown) [Compound 22A] = 91.6

###

target.entity: UniProt P00918
method.description: Human Carbonic Anhydrase II inhibition
Type: biochemical
details: read-out: hCAII (IC50 nM)
Entries annotated with measured IC50
test.readout: IC50 (nM)

- C[C@]12CCC3c4ccc(O)cc4CCC3C1CC[C@@H]2OC(=O)CNC(=O)c1ccc(S(N)(=O)=O)cc1 (stereo partly shown) [Compound 6A]: 65
- C[C@]12CCC3c4ccc(O)cc4CCC3C1CC[C@@H]2OC(=O)CN(Cc1cccc(S(N)(=O)=O)c1)Cc1cccc(S(N)(=O)=O)c1 (stereo partly shown) [Compound 13A]: 500
- C[C@]12CCC3c4ccc(O)cc4CCC3C1CC[C@@H]2OC(=O)[C@@H]1CCCN1Cc1ccc(S(N)(=O)=O)cc1 (stereo partly shown) [Compound 23A]: 129
- C[C@]12CCC3c4ccc(O)cc4CCC3C1CC[C@@H]2OC(=O)CNCc1cccc(S(N)(=O)=O)c1 (stereo partly shown) [Compound 14A]: 450
- C[C@]12CCC3c4ccc(O)cc4CCC3C1CC[C@@H]2OC(=O)COc1ccc(S(N)(=O)=O)cc1 (stereo partly shown) [Compound 15A]: 105
- C[C@]12CCC3c4ccc(O)cc4CCC3C1CC[C@@H]2OC(=O)COC(=O)c1ccc(S(N)(=O)=O)cc1 (stereo partly shown) [Compound 3A]: 250
- C[C@]12CCC3c4ccc(O)cc4CCC3C1CC[C@@H]2OC(=O)/C=C/C(=O)NCc1ccc(S(N)(=O)=O)cc1 (stereo partly shown) [Compound 4A]: 450

###

method.description: oral biological activity: % uterine weight increase compared to vehicle
Format: in vivo, rat
details: Rattus norvegicus; oral, 30.0 μg
Please enter fulfilled where change in vivo at 0.03 mg is greater than or equal to 200%, and not fulfilled where it is lower.

* C[C@]12CCC3c4ccc(O)cc4CCC3C1CC[C@@H]2OC(=O)/C=C/C(=O)NCc1ccc(S(N)(=O)=O)cc1 (stereo partly shown) [Compound 4A] | not fulfilled
* C[C@H](NC(=O)c1ccc(S(N)(=O)=O)cc1)C(=O)O[C@H]1CCC2C3CCc4cc(O)ccc4C3CC[C@@]21C (stereo partly shown) [Compound 12A] | fulfilled
* C[C@]12CCC3c4ccc(O)cc4CCC3C1CC[C@@H]2OC(=O)C1(S(N)(=O)=O)CC1 (stereo partly shown) [Compound 16A] | fulfilled
* C[C@]12CCC3c4ccc(O)cc4CCC3C1CC[C@@H]2OC(=O)COCc1ccc(S(N)(=O)=O)cc1 (stereo partly shown) [Compound 17A] | not fulfilled
* C[C@]12CCC3c4ccc(O)cc4CCC3C1CC[C@@H]2OC(=O)CNCc1cccc(S(N)(=O)=O)c1 (stereo partly shown) [Compound 14A] | not fulfilled
* C[C@]12CCC3c4ccc(O)cc4CCC3C1CC[C@@H]2OC(=O)c1cccc(S(N)(=O)=O)c1 (stereo partly shown) [Compound 1A, reference compound] | fulfilled
* C[C@]12CCC3c4ccc(O)cc4CCC3C1CC[C@@H]2OC(=O)CNC(=O)c1cccc(S(N)(=O)=O)c1 (stereo partly shown) [Compound 5A] | not fulfilled

###

target.entity: human carbonic anhydrase II (hCA 2) (Homo sapiens, UniProt P00918)
method.description: Human Carbonic Anhydrase II inhibition
Assay type: biochemical
details: read-out: hCAII (IC50 nM)
Entries annotated with measured IC50
test.readout: IC50 (nM)

* C[C@]12CCC3c4ccc(O)cc4CCC3C1CC[C@@H]2OC(=O)COCc1ccc(S(N)(=O)=O)cc1 (stereo partly shown) [Compound 17A] | 125
* C[C@]12CCC3c4ccc(O)cc4CCC3C1CC[C@@H]2OC(=O)CS(N)(=O)=O (stereo partly shown) [Compound 10A] | 510
* CC(C)[C@H](NC(=O)c1ccc(S(N)(=O)=O)cc1)C(=O)O[C@H]1CCC2C3CCc4cc(O)ccc4C3CC[C@@]21C (stereo partly shown) [Compound 19A] | 202

###

Entries annotated with measured change in vivo at 0.03 mg
method.description: oral biological activity: % uterine weight increase compared to vehicle
Format: in vivo, rat
details: Rattus norvegicus; oral, 30.0 μg
test.readout: change in vivo at 0.03 mg (%)

• C[C@]12CCC3c4ccc(O)cc4CCC3C1CC[C@@H]2OC(=O)COC(=O)c1ccc(S(N)(=O)=O)cc1 (stereo partly shown) = 197
• C[C@]12CCC3c4ccc(OS(N)(=O)=O)cc4CCC3C1CC[C@@H]2O (stereo partly shown) [Compound J995, reference compound] = 203
• C[C@]12CCC3c4ccc(O)cc4CCC3C1CC[C@@H]2OC(=O)COc1ccc(S(N)(=O)=O)cc1 (stereo partly shown) [Compound 15A] = 152
• C[C@]12CCC3c4ccc(O)cc4CCC3C1CC[C@@H]2OC(=O)CN(Cc1cccc(S(N)(=O)=O)c1)Cc1cccc(S(N)(=O)=O)c1 (stereo partly shown) [Compound 13A] = 136

###

Entries annotated with measured IC50
target.entity: human carbonic anhydrase II (hCA 2) (Homo sapiens, UniProt P00918)
method.description: Human Carbonic Anhydrase II inhibition
Assay type: biochemical
details: read-out: hCAII (IC50 nM)
test.readout: IC50 (nM)

* C[C@]12CCC3c4ccc(O)cc4CCC3C1CC[C@@H]2OC(=O)[C@@H]1CCCN1c1ccc(S(N)(=O)=O)cc1 (stereo partly drawn) [Compound 22A] | 198
* C[C@]12CCC3c4ccc(O)cc4CCC3C1CC[C@@H]2OC(=O)C(F)(F)S(N)(=O)=O (stereo partly drawn) [Compound 9A] | 85
* C[C@]12CCC3c4ccc(O)cc4CCC3C1CC[C@@H]2OC(=O)COC(=O)c1cccc(S(N)(=O)=O)c1 (stereo partly drawn) [Compound 2A] | 3500

###

Entries annotated with measured IC50
target.entity: human carbonic anhydrase II (hCA 2) (Homo sapiens, UniProt P00918)
method.description: Human Carbonic Anhydrase II inhibition
Format: biochemical
details: read-out: hCAII (IC50 nM)
test.readout: IC50 (nM)

* C[C@]12CCC3c4ccc(O)cc4CCC3C1CC[C@@H]2OC(=O)[C@H](Cc1ccccc1)NC(=O)c1ccc(S(N)(=O)=O)cc1 (stereo partly drawn) [Compound 21A] | 100
* C[C@]12CCC3c4ccc(OS(N)(=O)=O)cc4CCC3C1CC[C@@H]2O (stereo partly drawn) [Compound J995, reference compound] | 295
* C[C@]12CCC3c4ccc(O)cc4CCC3C1CC[C@@H]2OC(=O)CNC(=O)c1cccc(S(N)(=O)=O)c1 (stereo partly drawn) [Compound 5A] | 42
* C[C@]12CCC3c4ccc(O)cc4CCC3C1CC[C@@H]2OC(=O)c1cccc(S(N)(=O)=O)c1 (stereo partly drawn) [Compound 1A, reference compound] | 258
* C[C@]12CCC3c4ccc(O)cc4CCC3C1CC[C@@H]2OC(=O)[C@@H]1CCCN1C(=O)c1cccc(S(N)(=O)=O)c1 (stereo partly drawn) [Compound 7A] | 300
* C[C@H](NC(=O)c1cccc(S(N)(=O)=O)c1)C(=O)O[C@H]1CCC2C3CCc4cc(O)ccc4C3CC[C@@]21C (stereo partly drawn) [Compound 11A] | 310

These entries and their values trace back to patent US10273263B2.
